// viability at 28.5 h, 10 µM lookup, one value per entry
- PROCEDURE SUMMARY: in vitro
- STATED CONDITIONS: human, hela cells, % viability
ENDPOINT: viability at 28.5 h, 10 µM (%)

| COMPOUND | MEASUREMENT |
| --- | --- |
| CC(=O)OC(Cn1c2ccccc2c2ccccc21)Cn1c2ccccc2c2ccccc21 | 104 |
| O=C(c1cncs1)N1CCn2nc(C(O)Cc3ccccc3)cc2C1 (stereo not shown) | 90.6 |
| Cc1ccc(CCSCC(=O)O)cn1 | 95.3 |
| Nc1ncc(-c2cccc([N+](=O)[O-])c2)nc1-c1ccc(O)cc1 | 101 |
| Cc1ccc(-c2nn(CCC#N)cc2C(=O)N2CCOCC2)cc1 | 96.2 |
| O=C(CCC(=O)OCN1C(=O)c2ccccc2C1=O)Nc1ccc2ccccc2c1 | 108 |
| Cc1ccnc(NCC2CCN(c3ccc4nnnn4n3)C2)c1 (stereo not shown) | 57.3 |

* * *

- PROCEDURE SUMMARY: in vitro
- STATED CONDITIONS: human, hela cells, % viability

| COMPOUND | viability at 28.5 h, 10 µM |
| --- | --- |
| CC(C)(C)OC(=O)NCCc1ccc(Nc2cc(-c3cc4ccccc4s3)ncn2)cc1 | 94.3% |
| O=C(/C=C/c1ccccc1)Nc1cccc(C(=O)O)c1 | 94% |
| CCOCC1CCCN1C(=O)Nc1ccc2sc(C(=O)N(C)C)cc2c1 (stereo not shown) | 98.3% |
| Cc1cc(=O)c(O)c(CN2CCC(C(=O)O)CC2)o1 | 87.6% |
| CC1CCCCN1C(=O)CN1C(=O)[C@H]2CCCN2C(=O)c2ccccc21 (stereo partly shown) | 99.4% |
| Cc1nccn1CC1(O)CCN(CC(C)c2ccccc2)CC1 (stereo not shown) | 107% |
| COc1cc2c(cc1OC)CN(C(=O)Cn1cc(C)c(=O)[nH]c1=O)CC2 | 92.4% |
| CC(C)c1ccc(NC(=O)C2=NNC(=O)CC2)cc1 | 96.5% |
| COc1cccc2ccn(S(=O)(=O)c3ccsc3C(=O)O)c12 | 96.1% |
| N#CCCCN1CCC(Oc2cncc(OCCN3CCOCC3)n2)C1 (stereo not shown) | 103% |
| O=C1N[C@]2(CCc3ccccc31)CN(Cc1ccccc1)C[C@H]2CO | 106% |
| CCOc1cc(S(=O)(=O)NCCCn2ccnc2)ccc1Cl | 89% |
| CCOC(=O)Nc1ccc2c(c1)N(C(=O)CN1CCOCC1)c1ccccc1CC2 [CBK261286C] | 101% |
| CC(C)n1cc(C(=O)NCc2cccnc2N(C)C2CCCCC2)cn1 | 105% |
| CNC(=O)c1ccc(-c2cnc(NCC3CCN(C(=O)OC(C)(C)C)CC3)cn2)cc1 | 111% |
| CC1CCc2c(sc3ncnc(SCC(=O)N(C)C)c23)C1 (stereo not shown) | 92.9% |
| c1ccc(Oc2cccc(OCCCCN3CCNCC3)c2)cc1 [CBK266027G] | 92.6% |
| Cc1cc(C)n(-c2nc(NC(C)(C)C)nc(N3CCOCC3)n2)n1 | 85.5% |
| Cc1nccn1CCN(C)C(=O)c1ccc2c(c1)ncn2C | 98.8% |
| CS(=O)(=O)c1ccc(-c2nccnc2N2CCCCC2CO)cc1 (stereo not shown) | 102% |
| CC(CN(C)C(=O)c1cocn1)Oc1ccc(Cl)c(Cl)c1 (stereo not shown) | 97.6% |
| Cc1cc(C)c(S(=O)(=O)N2CCC(C(=O)NNC(=S)NC3CCCC3)CC2)c(C)c1 | 98.4% |
| CCc1noc(C)c1C(=O)Nc1ncc(C)s1 | 95.4% |
| COc1ccc(C[C@@]23CCC(=O)C[C@@H]2N(C)CC3)cc1 | 102% |
| CC1CN(Cc2nc3c(c(=O)[nH]c(=O)n3C)n2Cc2cccc(Cl)c2)CC(C)O1 (stereo not shown) | 105% |

* * *

- PROCEDURE SUMMARY: in vitro
- STATED CONDITIONS: human, hela cells, % viability
// viability at 28.5 h, 10 µM lookup, one value per entry

| MOLECULE | MEASURE UNIT | viability at 28.5 h, 10 µM |
| --- | --- | --- |
| Cc1cc(C)nc(NC(=O)COc2ccc([N+](=O)[O-])cc2)n1 | % | 101 |
| NS(=O)(=O)c1ccc(CCNC2=CC(=O)CC(c3ccco3)C2)cc1 (stereo not shown) | % | 97 |
| O=C(c1ccc(F)cc1)C1CCN(CCc2c[nH]c3ccccc23)CC1 | % | 96.3 |
| O=C(CCc1ccno1)NC(Cc1ccsc1)c1cccnc1 (stereo not shown) | % | 97.3 |

* * *

- PROCEDURE SUMMARY: in vitro
- STATED CONDITIONS: human, hela cells, % viability
// viability at 28.5 h, 10 µM lookup, one value per entry

| MOLECULE | viability at 28.5 h, 10 µM (%) |
| --- | --- |
| Cc1ccc2[nH]c(C)c(CC(=O)N(C)CCN(C)C)c2c1 | 105 |
| COc1cc(Nc2cccc(-c3ccco3)n2)cc(OC)c1OC | 108 |
| Cc1nnc(SCCCNC(=O)C2CC(=O)N(Cc3ccccn3)C2)s1 (stereo not drawn) | 101 |
| O=C1CC2(CCN(C(=O)c3ccoc3)CC2)Oc2ccc3ccccc3c21 | 91 |
| C=CCc1cccc(Cl)c1OCCN1CCNCC1 [CBK266071G] | 105 |
| O=S(=O)(NC1CCCCC1n1cc(-c2ccccc2)nn1)c1ccc(Cl)cc1 (stereo not drawn) | 99 |
| COc1ccc(NS(=O)(=O)c2ccc(Cl)cc2Cl)c(C(=O)NCc2ccccc2)c1 | 98.4 |
| Cc1nc2ccc(NC(=O)N3CCC(c4ccccc4)C3)cc2s1 (stereo not drawn) | 98.8 |
| Oc1cc(-c2ccccc2Cl)[nH]n1 | 95.6 |
| COC(=O)[C@H]1CN(C(=O)c2cccnc2)C[C@@H]1c1ccc(F)cc1 | 92.1 |
| CCCC(=O)c1ccc(S(=O)(=O)N2CCCN(Cc3ccc(C#N)cc3)CC2)cc1 | 106 |
| Cc1[nH]c(=O)[nH]c(=O)c1CC(=O)N1Cc2cc(Cl)ccc2OC2(CCOCC2)C1 | 93 |
| COc1cc(CN2CCN(Cc3ccccc3)CC2)cc([N+](=O)[O-])c1O | 99 |
| NC(=O)C1CCN(C2=NC(=O)/C(=C/c3cn(-c4ccccc4)nc3-c3cccs3)S2)CC1 | 97.3 |
| NC1=C(c2ccccc2)C(=O)CN1NC(=O)COc1ccccc1-c1ccccc1 | 95.1 |
| O=C(COc1ccc(Br)cc1)N1CCN(Cc2ccncc2)CC1 | 98.1 |
| CC(=O)O/C(N)=N/c1nonc1N | 105 |
| COc1ccc(F)c(CNCC2CCN(C(=O)OC(C)(C)C)CC2)c1 | 95.9 |
| O=C1NC(=O)C(CC(=O)N2CCC(Cn3cncn3)(C3CCCCC3)CC2)N1 (stereo not drawn) | 94.3 |
| COc1cc2c(cc1OC)C1c3ccccc3NC(c3ccc(C)cc3)N1CC2 (stereo not drawn) | 72.7 |
| CC(Oc1ccc(Cl)cc1Cl)C(=O)Nc1sc2c(c1C(N)=O)CCCCCC2 (stereo not drawn) | 85.8 |

* * *

// viability at 28.5 h, 10 µM lookup, one value per entry
- PROCEDURE SUMMARY: in vitro
- STATED CONDITIONS: human, hela cells, % viability

| COMPOUND | MEASURE UNIT | viability at 28.5 h, 10 µM |
| --- | --- | --- |
| CCN(CC)C(=O)C1CCCN(C(=O)Nc2ccc(Cl)cc2)C1 (stereo not drawn) | % | 90.1 |
| COc1ccc(C(=O)[C@H]2CCCN(C(=O)C3CC3)C2)cc1 | % | 91.4 |
| CS(=O)(=O)N(CC(=O)Nc1ccccc1C(=O)N1CCCC1)c1cc(Cl)c(Cl)cc1Cl | % | 106 |
| O=C(C1CCCC1)N1CCCCC1c1n[nH]cc1-c1ccncc1 (stereo not drawn) | % | 90.4 |
| CN1CCN(c2ccc(NC(=O)c3cccc(Br)c3)cc2)CC1 | % | 97.5 |
| Cc1ccc(OCC(=O)N2CCN(S(=O)(=O)c3ccccc3[N+](=O)[O-])CC2)cc1 | % | 98.5 |
| CC(C)[C@@H](Cn1nc(-c2cccs2)ccc1=O)NC(=O)C1CC1 | % | 87.4 |
| Cc1cccc(CN(CC(C)(C)CN)C(=O)Nc2ccccc2C(F)(F)F)n1 [CBK002409C] | % | 105 |
| O=C(c1nc(=O)[nH][nH]1)N1CCN(Cc2ccc(C(F)(F)F)cc2)CC1 | % | 95.5 |
| CC(=O)N1CCC[C@@H]1C(=O)N1CC[C@@H]2NC(=O)[C@H](Cc3ccccc3)NC(=O)C3(C/C=C/C[C@@H]2C1)CCOCC3 | % | 104 |
| N#C/C(C(=O)Nc1ccccc1)=C(/O)c1nn(-c2ccccc2)c2c1CSc1ccccc1-2 | % | 92.7 |
| Cc1nc(CC(=O)OC(C)C(=O)N2CCCc3ccccc32)cs1 (stereo not drawn) | % | 91.6 |
| CS(=O)(=O)Nc1ccccc1C(=O)NCCCN1CCOCC1 | % | 112 |
| Cc1ccc2c(c1)C(Oc1cncc(N3CCNCC3)n1)CCO2 (stereo not drawn) [CBK172334G] | % | 99.7 |
| CCCNc1cncc(-c2cccnc2)n1 | % | 99.1 |
